I'd appreciate it if you could supply EC50 values for the items below.
Tested on: 1A9
MEASUREMENT_PROTOCOL: Effective dose required for inhibitory activity against 1A9 human tumor cell line.
Format: functional
EXPERIMENTAL_SETUP: read-out: ED50 (the source's name)
Please give a number only; it is taken to be in ng/mL.

Would you kindly share the measured EC50 for CCCCCCCC/C=C\CC[C@H](O)[C@@H]1CC[C@@H]([C@H](O)CCCCC(O)CCCCCC(O)CC2=C[C@H](C)OC2=O)O1 (stereo partly specified) ?
930

Also CCCCCCCC(O)C(O)CC[C@H](O)[C@@H]1CC[C@@H](CCCCCCCCCC[C@H](O)CC2=C[C@H](C)OC2=O)O1 (stereo partly specified) ?
680

Could you do the same for CCCCCCCCCCCC[C@@H](O)[C@H]1CC[C@H]([C@H](O)CCCCC(O)CCCCCCCC2=C[C@H](C)OC2=O)O1 (stereo partly specified) , please?
100

Another molecule: `CCCCCCCCC[C@H](O)[C@@H]1CC[C@@H]([C@@H]2CC[C@@H](CCCCCCCCCC[C@H](O)CC3=C[C@H](C)OC3=O)O2)O1`
1930

Cool, now CCCCCC(O)C(O)CCCCCC[C@H](O)[C@@H]1CC[C@H](CCCCCCCCCC[C@H](O)CC2=C[C@H](C)OC2=O)O1 (stereo partly specified)
520

# iterate: `CCCCCC[C@H](O)CCC[C@H](O)[C@H]1CC[C@H]([C@H]2CC[C@H]([C@H](O)CCCCCCCCCCCCC3=C[C@H](C)OC3=O)O2)O1`
0.32

Also, `CCCCCC[C@@H](O)CCC[C@H](O)[C@@H]1CC[C@@H]([C@H](O)CC[C@@H](O)[C@@H]2CC[C@@H](CCCCCCCCCC3=C[C@@H](C)OC3=O)O2)O1` please.
8.7

Now give it for CCCCCCCCCCCCC(O)C(O)CCC(O)[C@H]1CC[C@H](CCCCCCC[C@@H](O)CC2=C[C@H](C)OC2=O)O1 (stereo partly specified) too.
70

Then this molecule: CCCCCCCCCCCC[C@H](O)[C@@H]1CC[C@@H]([C@@H](O)CCCCC(=O)CCCCCC2CC(CC(C)=O)C(=O)O2)O1 (stereo partly specified)
2200

Let us now turn to CCCCCCCC(O)C(O)CCCC[C@@H](O)[C@H]1CC[C@H](CCCCCCCCCCCCC2=C[C@H](C)OC2=O)O1 (stereo partly specified)
770

How about CCCCCCCCCCCCCC[C@@H](O)[C@H]1CC[C@H]([C@H](O)CCCCC(O)CCCCCC(O)CC2=C[C@H](C)OC2=O)O1 (stereo partly specified) ?
500

Same again, this time with CCCCCCCCCCCC[C@@H](O)[C@H]1CC[C@H]([C@H](O)CCCCCC(O)CCCC[C@@H](O)CC2=C[C@H](C)OC2=O)O1 (stereo partly specified)
500

Request: CCCCCC(O)C(O)CCCCCC[C@@H](O)[C@H]1CC[C@H](CCCCCCCCCC[C@@H](O)CC2=C[C@H](C)OC2=O)O1 (stereo partly specified)
330

What about CCCCCCCCCCCCCC[C@@H](O)[C@H]1CC[C@H]([C@H](O)CCC(O)CCCCCCCC2=C[C@H](C)OC2=O)O1 (stereo partly specified) ?
810

Next record, please: CCCCCCCCCCCCCCCCCC1OC1C1OC1CCCCCCCCC1=C[C@H](C)OC1=O (stereo partly specified)
8800

Subsequent entry: `CCCCCCCCCCCC[C@@H](O)[C@H]1CC[C@H]([C@H](O)CCCCCCCCCCCCC2=C[C@H](C)OC2=O)O1`
7800

Entry `CCCCCCCCCCCC[C@@H](O)[C@H]1CC[C@@H]([C@@H](O)CCCCC(=O)CCCCCCCC2=C[C@H](C)OC2=O)O1` please
820

How about this molecule: CCCCCCCCCCCC[C@H](O)[C@@H]1CC[C@@H]([C@@H](O)CCCCCCC(O)CCCCC[C@@H](O)CC2=C[C@H](C)OC2=O)O1 (stereo partly specified)
78

Would you kindly repeat that for CCCCCCCCCCCC[C@@H](O)[C@H]1CC[C@H]([C@H](O)CCCC[C@H](O)CCCCC[C@@H](O)CC2=CC(C)OC2=O)O1 (stereo partly specified) ?
70

Check `CCCCCCCCCCCC[C@@H](O)[C@H]1CC[C@H]([C@H](O)CCCCCCCCCC[C@@H](O)CC2=C[C@H](C)OC2=O)O1` too.
960

How about this molecule: CCCCC(O)C(O)C/C=C\CC[C@H](O)[C@@H]1CC[C@@H](CCCCCCCCCCCC[C@H](O)CC2=C[C@H](C)OC2=O)O1 (stereo partly specified)
870

And `CCCCCCCCCCCC[C@@H](O)[C@H]1CC[C@H]([C@H](O)CCCCC(=O)CCCCCCCC2=C[C@H](C)OC2=O)O1` ?
760

Now consider `CCCCCCCCCC[C@H](O)[C@H]1CC[C@H]([C@H]2CC[C@H]([C@H](O)CCCCCCCC[C@@H](O)CC3=C[C@H](C)OC3=O)O2)O1` .
0.005

Another molecule: `CCCCCCCCCCCC[C@@H](O)[C@H]1CC[C@H]([C@H](O)CCCCC(=O)CCCCC[C@@H](O)CC2=C[C@H](C)OC2=O)O1`
740

Repeat with CCCCCCCCCCCC[C@@H](O)[C@H]1CC[C@@H]([C@@H](O)CCCCCCC(O)CCCCC[C@@H](O)CC2=C[C@H](C)OC2=O)O1 (stereo partly specified)
80

Cool, now `CC(=O)O[C@H]1C(=O)[C@@]2(C)[C@H]([C@H](OC(=O)c3ccccc3)[C@]3(O)C[C@H](OC(=O)[C@H](O)[C@@H](NC(=O)c4ccccc4)c4ccccc4)C(C)=C1C3(C)C)[C@]1(OC(C)=O)CO[C@@H]1C[C@@H]2O`
2
